Data provenance is ChEMBL document CHEMBL1150401.

Test system: Salmonella typhimurium
method.description: Mutagenic activity in Salmonella Typhimurium TA100 assessed as number of his+ revertants at 100 ug/plate after 48 to 72 hrs by Ames test in presence of S9 fraction
Format: toxicity, organism-based
protocol.conditions: salmonella enterica subsp. enterica serovar typhimurium
Give measured Activity for each item. Keep answers brief.
Give the value as a plain number.

// query Kindly state the measured Activity obtained for C/C=C/c1c(OC)cc(OC)cc1OC with Salmonella typhimurium.
// result 153

// query Kindly state the measured Activity obtained for C/C=C/c1cc(OC)c(OC)c(OC)c1 with Salmonella typhimurium.
// result 119

// query Kindly state the measured Activity obtained for C/C=C/c1c(OC)ccc(OC)c1OC.CC(C)CCC[C@@H](C)[C@H]1CC[C@H]2[C@@H]3CC=C4C[C@@H](O)CC[C@]4(C)[C@H]3CC[C@]12C with Salmonella typhimurium.
// result 188

// query Kindly state the measured Activity obtained for C/C=C/c1ccc(OC)c(OC)c1OC with Salmonella typhimurium.
// result 167
